Tested on: HCT-116 colon
Test: NCI tumour cell line growth inhibition, 48 h; in the data active = GI50 below about 0.43 µM; inactive = the rest
Please reply with one of these outcomes: 1 for active, 0 for inactive

# input Recorded call for N=c1c2c(-c3ccccc3)c(-c3ccccc3)n(Cc3ccccc3)c2ncn1C1CCC(O)CC1 (stereo unspecified) ?
# output 1

# input What was the test verdict on `CC(=O)Nc1ccc(-c2csc(Nc3cccc(-c4csc(C)n4)c3)n2)cc1` ?
# output 0

# input Recorded test call requested for `CC(C)(/C=C(\C#N)C(=O)N1CCC[C@@H](n2nc(-c3ccc(Oc4ccccc4)cc3F)c3c(N)ncnc32)C1)N1CCN(C2COC2)CC1`
# output 0

# input Which outcome did this test record for the compound CC1(C)OC2C(CO[Si](C)(C)C(C)(C)C)OC(n3c(I)c(C#C[Si](C)(C)C)c(=O)[nH]c3=O)C2O1 (stereo unspecified) ?
# output 0

# input Tell me the assay call for `O=c1c(F)cn(Cc2ccc(C34CC5CC(CC(C5)C3)C4)c(O)c2)c(=O)n1Cc1ccc(C23CC4CC(CC(C4)C2)C3)c(O)c1` please.
# output 0

# input Dear all, I need the recorded test outcome for `Nc1ncc(-c2ccc3ncnc(Nc4ccc(F)c(Cl)c4)c3c2)cn1` , thank you.
# output 0

# input Could you please tell me the result logged for `Cc1nc(Nc2cccnc2)sc1C(=O)/C=C/c1ccc(F)cc1` in this assay?
# output 0

# input Query: recorded result category for `COc1cc(N(CCC#N)CCC#N)ccc1/C(N=Nc1ccc(Cl)cc1)=N/NC(=O)c1cc(Br)ccc1O` in this test
# output 0

# input Assay outcome for `O=C(Nc1ccc(Br)cc1F)c1cc(Cl)ccc1O` : what was it?
# output 0

# input So what was the verdict on `O=C(Cc1ccc(F)c(Cl)c1)Nc1cc(C2(C(F)(F)F)CC2)nn1CC1CCCCC1` in this test?
# output 0

# input How was `N#Cc1nn(-c2cc(=O)[nH]c3ccc(Cl)cc23)c(N)c1C#N` classified in this test?
# output 0

###

Tested on: MDA-MB-435
Assay: NCI tumour cell line growth inhibition, 48 h
Assign TGI to each entry below.

# input Name the recorded TGI for C=C1C(=O)CC2C1CC(=O)/C(C)=C/CCC(C)(O)C2O (stereo unspecified) .
# output 20.4 µM

# input Recorded TGI for `C/C(C[n+]1ccccc1)=N\N=C(N)N` , please?
# output > 100 µM

# input Please report the recorded TGI for `Clc1cc2c(c(CSc3nc4ccccc4n4cccc34)c1)OCOC2` .
# output > 100 µM

# input Requested read-out: TGI. Entry: `O=C(/C=C/c1ccccc1)Oc1ccc(C(=O)/C=C/c2ccccc2)cc1`
# output 18.8 µM

# input Field request: TGI | item: CCN1CN(c2ccccc2)C2(CCN(CC3COc4ccccc4O3)CC2)C1=O (stereo unspecified)
# output 67.2 µM

# input TGI for `Cc1cc(N[C@@H]2CCC[C@H](Nc3ccnc4cc(Cl)ccc34)C2)nc(N2CCCCCC2)n1` ?
# output 3.33 µM

# input Report TGI for `NC1CCN(Cc2ccccc2)CC1` please.
# output > 100 µM

# input Data request, read-out TGI, for `Cc1c2cc[n+](C)c(C)c2cc2c1[nH]c1ccccc12`
# output > 75.2 µM

# input Fill blank: measured TGI of the molecule `O=C(NCP(=O)(Oc1ccccc1)Oc1ccccc1)OCc1ccccc1` is ____.
# output > 100 µM

# input Recorded TGI of `CSC1=N/C(=C\c2ccc(C)cc2)C(=O)N1CN1CCCCC1` , please.
# output > 100 µM

# input Value lookup for TGI; key = `Cn1c(SCc2ccc(F)cc2)nnc1C12CC3CC(CC(C3)C1)C2`
# output 61.7 µM
